B1: tRNA (parent)
chain: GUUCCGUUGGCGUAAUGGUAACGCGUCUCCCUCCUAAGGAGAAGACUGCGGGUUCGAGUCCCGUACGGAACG

Variants of: B1
Assay: yeast fitness relative to wild type (ratio to wild type); higher = fitter; tRNA-Arg(CCU), competitive growth, 37 C, YPD
This sample holds only a part of the variants without activity.
assayReadout: yeast fitness

- chainSequence: "GUUCCGUUGGAGUAAUGGUAACGCGUCUCCCUCCUAAGGAGAAGACUGCGGGUUGGAGUCCCGUACGGAACG"
  boundSign: "="
  measuredValue: 0.535
- chainSequence: "GUUCCGUUGGCGUAAUGGUUACGCGUCUCCCUCCUAAGGAGAAGACUGCGGGUUCGAGUGUCGUACGGAACG"
  boundSign: "≤"
  measuredValue: 0.5
- chainSequence: "GUUCCGUUGGCGUAGUAGUAACGCGUCUCACUCCUAAGGAGAAGACUGCGGGUUCGAGUCACGUACGGAACG"
  boundSign: "≤"
  measuredValue: 0.5
- chainSequence: "GUUCCGUUGGCGUAAUGGUCACGCGUCACCCUCCUAAGGAGAAGACUGCGGGUUCGAGUCCCGUACGGAACG"
  boundSign: "="
  measuredValue: 0.672
- chainSequence: "GCUCCGGUGGCGUAAUGGUAACGCGUCUCCCUCCUAAGGCGAAGACUGCGAGUUCGAGUCCCGUACAGAACG"
  boundSign: "≤"
  measuredValue: 0.5
- chainSequence: "GUUCCGUUGGCGUAAUGGUCACGGGUCUCCCUGCUAAGGAGUAGACUGCGGGUUCGCGUCCCGUACCGAACG"
  boundSign: "="
  measuredValue: 0.645
- chainSequence: "GUUCCGUUGGCGUACUGGUAACGCGUCUCCCUCCUAAGAAGAAGACUGCGGGUUCGAGUCCCGUACAGAACG"
  boundSign: "≤"
  measuredValue: 0.5
- chainSequence: "GUUCCGUUGGCGUAAUGGUAAUGCGUCUCCCUCCUAAGGAGAAGAUUGCCGGUUUGUGUCCGGUACGGAUCG"
  boundSign: "≤"
  measuredValue: 0.5
- chainSequence: "GUUCCGUUGGCGUAAUGGUACCGCGUCUCCCUGGUAAGGAGAAGACUGCGGGUACGAGUCCCGUACGGAACG"
  boundSign: "≤"
  measuredValue: 0.5
- chainSequence: "GUUCCGUUGGCGUAAUGGUAACGCGUCUCCCUCCUAAGGAGAAGACUGCGGGCUCGAGUCCCGUAUGGAACG"
  boundSign: "="
  measuredValue: 0.814
- chainSequence: "GUUCCGUUCGCCUAAUGGUAACGUGUCUCCCUCUUAAGGAGAAGACUGGGGGUUCGAGUCCCGUACGGAACG"
  boundSign: "="
  measuredValue: 0.658
- chainSequence: "GUUCCGUUGGCGUAAUGGUAAGGCGUCUCCCUCCUAAGGAAAAGACUCCGGGUUCGAGUCCCGUACGCAACG"
  boundSign: "≤"
  measuredValue: 0.5
- chainSequence: "GUUACGUUGGCGUACUGGUAACGCGUCUCCCUCCUAAGGAGAAGACUGCGGGUUCGAGUCCCGUAUGGAACG"
  boundSign: "≤"
  measuredValue: 0.5
- chainSequence: "GUUCCGUUGGCGUAAUGGUGACGCGUCUCCCUCCUAAGGAGAUGACUGCGGGUUCGAGUCCCGUACGGAACG"
  boundSign: "="
  measuredValue: 1.03
- chainSequence: "GUUCUGUUGGCGUAAUGGUAACGCGCCUCCCUCCUAAGGUGAAGACUGCGGGUUCGAGUCCCGUACGGAACG"
  boundSign: "≤"
  measuredValue: 0.5
- chainSequence: "GUUCCGUUGGCGUUAUGGUAACGCGUUUCCCUCCUAAGGAGAAGACUGCGGGUUGGAGUCCCGUACGGAACG"
  boundSign: "="
  measuredValue: 0.517
- chainSequence: "GUUCCGUUGGGGUAAUAGUUACGCGUCUCCCUGCUAAGGAGACGACUGCGGGUUCGAGUCGCGUGCGGAACG"
  boundSign: "≤"
  measuredValue: 0.5
- chainSequence: "GUUCUGUUGGCGUAAUGGUAACGCGUCUCCCUCAUAAGGAGAAGACUGCGGGUUCGGGUCCCGUACGGAACG"
  boundSign: "≤"
  measuredValue: 0.5
- chainSequence: "GUUCCGUUGGAGUAAUGGUAACGCGUCUCCGUCCUAAGGAGAAGACUGCGGGUUCGAGUCCGGUACGGAACG"
  boundSign: "="
  measuredValue: 0.506
- chainSequence: "GUUCCGCUGGCGUAAUGGUAACGCGUCUCCCUCCUAAGGAACAGACUGCCGGUUCGAGUCCCGUACGGAACG"
  boundSign: "="
  measuredValue: 0.592
- chainSequence: "GUUCCGUUGGCGUAAUGGUAACGCGUCUCCCUCCUAAGGAGAAGACUGCGGCUUCGAGUCCCAUGCGGAACG"
  boundSign: "≤"
  measuredValue: 0.5
- chainSequence: "GUUCCGUUGGCGUAAUGGUAACGCGUCUCCCUACUAAGGAGAAGACAGCGGGUUCGAGUCCCGUACGGAACG"
  boundSign: "="
  measuredValue: 0.777
